Please respond with reported pEC50 for every item in the list.
- Test system: HBV (encapsidated HBV DNA, HepG2.2.15 cells)
- assayDetails: HBV replication inhibition assay, BDNA assay in HepG2.2.15 cells
- Type: cell-based
- details: Hepatitis B virus, HepG2.2.15, Activity in BDNA-assay
pEC50: −log10 of the molar value.

As a guide, the following entries are already answered.
- compound: "C[C@@H]1Cc2nn3c(c2CN1C(=O)Nc1ccc(F)c(Cl)c1)C(=O)N(CC(C)(C)O)CCC3 [Compound 048]"
  pEC50: "6.30 to 7.00"
- compound: "C[C@@H]1Cc2nn3c(c2CN1C(=O)Nc1ccc(F)c(Cl)c1F)C(=O)N(C)CC(CO)C3 (single isomer, unassigned) [Compound 089_D1]"
  pEC50: "7.00 to 9.00"
- compound: "CN1C(=O)c2c3c(nn2CCC1C(=O)O)CCN(C(=O)Nc1ccc(F)c(Cl)c1)C3 (stereo not drawn) [Compound 058]"
  pEC50: "< 6.00"
- compound: "C[C@@H]1Cc2nn3c(c2CN1C(=O)Nc1cc(Cl)c(F)cc1F)C(=O)N(CC(F)F)CCC3 [Compound 078]"
  pEC50: "6.30 to 7.00"
- compound: "CC1CCn2nc3c(c2C(=O)N1C)CN(C(=O)Nc1ccc(F)c(Cl)c1)CC3 (stereo not drawn) [Compound 039]"
  pEC50: "7.00 to 9.00"
- compound: "CN1CCCn2nc3c(c2C1)CN(C(=O)Nc1ccc(F)c(Cl)c1)CC3 [Compound 046]"
  pEC50: "< 6.00"
- compound: "CC1CN(C)C(=O)c2c3c(nn2C1)CCN(C(=O)Nc1ccc(F)c(Cl)c1)C3 (stereo not drawn) [Compound 014]"
  pEC50: "7.00 to 9.00"
- compound: "CN1CC(F)Cn2nc3c(c2C1=O)CN(C(=O)Nc1ccc(F)c(C#N)c1)CC3 (stereo not drawn) [Compound 009]"
  pEC50: "7.00 to 9.00"
- compound: "CC[C@H](O)[C@@H]1CN(C)C(=O)c2c3c(nn2C1)CCN(C(=O)Nc1cc(Cl)c(F)cc1F)C3 (single isomer, unassigned) [Compound 096_E1]"
  pEC50: "7.00 to 9.00"
- compound: "CN1CC(O)Cn2nc3c(c2C1=O)CN(C(=O)Nc1ccc(F)c(Cl)c1)CC3 (stereo not drawn) [Compound 004]"
  pEC50: "7.00 to 9.00"

// for each compound below, give its pEC50
1. CN1CC(N2CCC(F)(F)C2)Cn2nc3c(c2C1=O)CN(C(=O)Nc1ccc(F)c(Cl)c1)CC3 (stereo not drawn) [Compound 054]
2. CN1CC(F)Cn2nc3c(c2C1=O)CN(C(=O)Nc1ccc(F)c(Cl)c1)CC3 (stereo not drawn) [Compound 006]
3. CCC(O)C1CN(C)C(=O)c2c3c(nn2C1)CC(C)N(C(=O)Nc1ccc(F)c(C(F)(F)F)c1)C3 (stereo not drawn) [Compound 107_D1]
4. CN(C)CC1CN(C)C(=O)c2c3c(nn2C1)CCN(C(=O)Nc1ccc(F)c(Cl)c1)C3 (stereo not drawn) [Compound 065]

1. 6.30 to 7.00
2. 7.00 to 9.00
3. 7.00 to 9.00
4. 6.30 to 7.00

pEC50 in this record for Cc1cc(NC(=O)N2Cc3c(nn4c3C(=O)N(CC(F)F)CCC4)C[C@H]2C)ccc1F [Compound 077] : 7.00 to 9.00
